protocol_text: self-splicing fitness, log relative to wild type (ln ratio); higher = more splicing; Tetrahymena group I intron in knt gene, E. coli kanamycin selection, DiMSum; sequences stand for … in CUCUCU…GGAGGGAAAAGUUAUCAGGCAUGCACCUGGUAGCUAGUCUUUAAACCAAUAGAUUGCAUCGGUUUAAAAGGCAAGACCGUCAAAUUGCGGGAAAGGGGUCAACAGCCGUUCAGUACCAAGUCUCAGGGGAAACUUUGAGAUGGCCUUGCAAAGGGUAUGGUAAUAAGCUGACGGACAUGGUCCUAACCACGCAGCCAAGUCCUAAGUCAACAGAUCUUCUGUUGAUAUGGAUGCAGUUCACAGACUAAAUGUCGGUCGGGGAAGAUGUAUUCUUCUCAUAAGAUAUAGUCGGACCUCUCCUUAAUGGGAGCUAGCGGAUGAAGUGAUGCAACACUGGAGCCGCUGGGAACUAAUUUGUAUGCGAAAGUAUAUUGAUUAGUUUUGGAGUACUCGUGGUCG;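 note: selection with 25 µg/mL kanamycin versus none on LB agar overnight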
experimental_context: 37 °C
Assign class by self-splicing fitness (ln): not lower than -1 means 1; lower than -1 means -1.

These recorded examples may help you get a feel for the data.
Q: Dear colleague, could you confirm whether `UCCGAGCAAUAUUACGCAAA` has self-splicing fitness (ln) at or above -1?
A: -1

Q: Is it the case that `ACGUAGCAAUAUUACGUAAA` has self-splicing fitness (ln) reaching or exceeding -1?
A: 1

Q: Dear colleague, could you confirm whether `GUGUAGCAAUAUUACGUAUA` has self-splicing fitness (ln) at or above -1?
A: 1

New cases:
Q: State whether the measured self-splicing fitness (ln) reaches -1, counting equality as reaching it, for `CGGAAGCAAUAUUACGCUGU`
A: -1

Q: Quick check, self-splicing fitness (ln) >= -1? `CGCCAGCAAUAUUACGACCC`
A: -1

* * *

protocol_text: self-splicing fitness, log relative to wild type (ln ratio); higher = more splicing; Tetrahymena group I intron in knt gene, E. coli kanamycin selection, DiMSum; sequences stand for … in CUCUCU…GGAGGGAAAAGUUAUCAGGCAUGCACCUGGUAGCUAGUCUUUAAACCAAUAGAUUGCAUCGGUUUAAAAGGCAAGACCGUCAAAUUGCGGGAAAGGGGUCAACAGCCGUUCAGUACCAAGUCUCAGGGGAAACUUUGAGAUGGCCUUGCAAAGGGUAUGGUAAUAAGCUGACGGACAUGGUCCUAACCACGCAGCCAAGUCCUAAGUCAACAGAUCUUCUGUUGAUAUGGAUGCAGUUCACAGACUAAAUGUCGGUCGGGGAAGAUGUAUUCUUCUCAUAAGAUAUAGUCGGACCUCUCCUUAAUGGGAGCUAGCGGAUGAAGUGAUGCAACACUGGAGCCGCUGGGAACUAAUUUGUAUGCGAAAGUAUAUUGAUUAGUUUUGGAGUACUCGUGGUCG
experimental_context: 30 °C
Cut-off -3 on self-splicing fitness (ln), inclusive. At or above means rule met; below means rule not met.

Observe how each entry below is paired with its result.
Q: Could you verify whether the entry `CCCCAGCAAUAUUACGUGUA` shows self-splicing fitness (ln) of no less than -3?
A: rule not met

Q: Given the entry `CAUUAGCAAUAUUACGCAGG` , answer whether its self-splicing fitness (ln) meets or surpasses -3.
A: rule met

More entries:
Q: Form field: self-splicing fitness (ln) at least -3? Entry: `AUGCAGCAAUAUUACGUUGC`
A: rule not met

Q: self-splicing fitness (ln) >= -3 for `CCCCAGCAAUAUUACGAGCU` ?
A: rule not met

Q: Evaluate `GAAGAGCAAUAUUACGGACA` : self-splicing fitness (ln) at minimum -3?
A: rule met

Q: Confirm if self-splicing fitness (ln) reported for the sequence `CGGUAGCAAUAUUACGGGGU` is -3 or above.
A: rule not met

Q: Record `UACUAGCAAUAUUACGUAAA` ; criterion: self-splicing fitness (ln) no lower than -3. Met?
A: rule met

* * *

protocol_text: self-splicing fitness, log relative to wild type (ln ratio); higher = more splicing; Tetrahymena group I intron in knt gene, E. coli kanamycin selection, DiMSum; sequences stand for … in CUCUCU…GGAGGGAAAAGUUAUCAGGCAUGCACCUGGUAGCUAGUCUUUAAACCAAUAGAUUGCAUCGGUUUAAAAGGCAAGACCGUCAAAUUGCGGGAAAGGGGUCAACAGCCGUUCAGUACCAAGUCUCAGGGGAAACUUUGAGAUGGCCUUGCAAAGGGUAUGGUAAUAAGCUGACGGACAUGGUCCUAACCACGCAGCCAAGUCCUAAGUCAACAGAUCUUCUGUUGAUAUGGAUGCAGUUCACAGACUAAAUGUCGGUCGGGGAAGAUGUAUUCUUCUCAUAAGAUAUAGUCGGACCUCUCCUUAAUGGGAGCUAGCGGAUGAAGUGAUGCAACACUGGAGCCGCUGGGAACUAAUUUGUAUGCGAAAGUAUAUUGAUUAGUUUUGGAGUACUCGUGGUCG
experimental_context: 37 °C
property_label: self-splicing fitness (ln)
// keep it numeric: no unit symbol after the value

Q: Identify measured self-splicing fitness (ln) associated with `GCUAAGCAAUAUUACGCGCA`
A: -0.114

Here's the next entry for you.
Q: Write down self-splicing fitness (ln) measured for item `UGAAAGCAAUAUUACGCCUA`
A: 0.207

* * *

protocol_text: self-splicing fitness, log relative to wild type (ln ratio); higher = more splicing; Tetrahymena group I intron in knt gene, E. coli kanamycin selection, DiMSum; sequences stand for … in CUCUCU…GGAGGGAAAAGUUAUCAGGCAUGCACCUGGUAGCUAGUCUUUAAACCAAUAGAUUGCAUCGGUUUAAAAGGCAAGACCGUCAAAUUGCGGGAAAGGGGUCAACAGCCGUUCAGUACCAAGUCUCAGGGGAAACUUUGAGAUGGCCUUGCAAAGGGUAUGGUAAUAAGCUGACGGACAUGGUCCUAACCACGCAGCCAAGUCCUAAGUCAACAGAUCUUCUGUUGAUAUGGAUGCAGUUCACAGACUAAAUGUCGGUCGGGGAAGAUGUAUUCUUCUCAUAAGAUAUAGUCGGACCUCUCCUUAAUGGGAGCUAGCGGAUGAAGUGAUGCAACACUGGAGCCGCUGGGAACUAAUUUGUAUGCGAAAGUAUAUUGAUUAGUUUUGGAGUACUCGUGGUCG
experimental_context: 37 °C
property_label: self-splicing fitness (ln)
No unit in the answer, only the number.

Q: Give reported self-splicing fitness (ln) value for `GGCCAGCAAUAUUACGUAUA`
A: -2.23

Q: Quote self-splicing fitness (ln) reported for `GGUCAGCAAUAUUACGGGCG` please.
A: 0.32

Q: Identify measured self-splicing fitness (ln) associated with `GGCAAGCAAUAUUACGGAUA`
A: -0.586

---
Q: Please report self-splicing fitness (ln) for the following sequence: `GGCCAGCAAUAUUACGCAAC`
A: -0.97

Q: For the sequence `CUCGAGCAAUAUUACGGACG` , report self-splicing fitness (ln).
A: -2.25

Q: Return self-splicing fitness (ln) (reported value) for this sequence: `AGAAAGCAAUAUUACGGCUG`
A: -0.414

Q: Recall and state the measured self-splicing fitness (ln) for `CUGCAGCAAUAUUACGGAAU` .
A: -2.74

Q: Indicate the recorded self-splicing fitness (ln) value for this sequence: `GCAUAGCAAUAUUACGGAAU`
A: -1.84

* * *

protocol_text: self-splicing fitness, log relative to wild type (ln ratio); higher = more splicing; Tetrahymena group I intron in knt gene, E. coli kanamycin selection, DiMSum; sequences stand for … in CUCUCU…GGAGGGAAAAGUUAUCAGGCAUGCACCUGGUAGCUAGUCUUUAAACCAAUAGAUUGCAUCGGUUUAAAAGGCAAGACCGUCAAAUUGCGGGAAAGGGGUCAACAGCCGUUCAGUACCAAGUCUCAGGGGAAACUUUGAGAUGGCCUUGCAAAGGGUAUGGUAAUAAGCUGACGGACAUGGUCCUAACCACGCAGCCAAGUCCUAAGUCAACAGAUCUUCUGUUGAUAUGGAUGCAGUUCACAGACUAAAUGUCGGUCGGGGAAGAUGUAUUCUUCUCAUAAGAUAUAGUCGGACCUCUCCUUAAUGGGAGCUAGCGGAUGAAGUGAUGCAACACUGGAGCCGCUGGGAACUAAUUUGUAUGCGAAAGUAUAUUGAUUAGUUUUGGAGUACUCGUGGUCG
experimental_context: 30 °C
Category key, based on recorded self-splicing fitness (ln): low (below -3), mid (-3 to below -2), high (-2 or more)

Solved cases below.
Q: Could you tell me which band `CUCCAGCAAUAUUACGGUAU` belongs to?
A: low

Q: Kindly state the category for this sequence: `GUUGAGCAAUAUUACGAUGG`
A: low

Q: Please let me know in which category the item `GCCAAGCAAUAUUACGUUAC` belongs.
A: mid

Q: Returns: class label. Input: `GAGCAGCAAUAUUACGGCAG`
A: mid

Q: Input `AUAGAGCAAUAUUACGCCAG` ; output its category
A: mid

Turning to the following sequence.
Q: Which class does `AGCAAGCAAUAUUACGUAUG` fall in?
A: low
